Target: B.1.351 Spike (SARS-CoV2)
pKd: −log10 of the molar value.
value kind: pKd

binder	value kind	relation sign	observed result
Ab_16 scFv-Fc (scFv, V domains shown) VH: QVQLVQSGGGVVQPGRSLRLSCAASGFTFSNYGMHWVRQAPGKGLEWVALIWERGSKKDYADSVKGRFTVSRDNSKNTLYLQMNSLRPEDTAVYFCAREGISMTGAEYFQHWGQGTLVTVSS VL: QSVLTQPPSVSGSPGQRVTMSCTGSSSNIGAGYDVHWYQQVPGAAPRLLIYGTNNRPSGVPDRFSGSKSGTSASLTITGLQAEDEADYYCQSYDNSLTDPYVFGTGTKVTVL	pKd	>	12.00
Ab_28 scFv-Fc (scFv, V domains shown) VH: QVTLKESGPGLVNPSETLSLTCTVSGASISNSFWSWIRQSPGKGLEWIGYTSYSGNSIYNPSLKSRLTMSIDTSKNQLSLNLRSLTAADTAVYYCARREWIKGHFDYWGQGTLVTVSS VL: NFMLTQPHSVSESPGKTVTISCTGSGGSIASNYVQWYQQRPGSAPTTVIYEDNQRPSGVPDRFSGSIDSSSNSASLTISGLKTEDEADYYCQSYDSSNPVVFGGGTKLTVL	pKd	=	11.20
Ab_18 scFv-Fc (scFv, V domains shown) VH: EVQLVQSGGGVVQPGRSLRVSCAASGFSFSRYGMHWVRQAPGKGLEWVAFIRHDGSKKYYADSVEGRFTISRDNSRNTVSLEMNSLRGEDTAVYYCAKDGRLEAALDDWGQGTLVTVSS VL: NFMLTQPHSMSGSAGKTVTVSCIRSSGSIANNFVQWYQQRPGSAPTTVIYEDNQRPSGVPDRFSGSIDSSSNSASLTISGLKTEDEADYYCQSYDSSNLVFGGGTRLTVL	pKd	=	8.87

The measurements presented in this section are drawn from patent US20240409617A1.
